Reference source for all entries: paper PMC12670426

- Measured on: human galectin-1 (Gal-1, full length) (Homo sapiens)
- Construct: Gal-1 is a prototype galectin consisting of a single CRD and was used in full length; 6xHis tag with TEV protease site (N, cleaved yes); made in house; host or cells: BL21 Escherichia coli (pET-15b)
- Sequence (P09382 2-135): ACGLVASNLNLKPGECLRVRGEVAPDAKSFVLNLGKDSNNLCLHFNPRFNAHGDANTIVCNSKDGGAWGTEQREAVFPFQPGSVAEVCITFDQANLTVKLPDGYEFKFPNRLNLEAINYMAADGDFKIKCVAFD
- Test protocol: Competitive fluorescence polarization assay, Gal-1
- Type: binding
- Assay context: four-parameter logistic model; mean ± SD; read-out: IC50 Gal-1
pIC50: −log10 of the molar value.
Property: pIC50

// known answers, use as guide
Compound	Measurement
CC(=O)N(c1cc(C(=O)O)cc2[nH]ccc12)[C@@H]1O[C@H](CO)[C@@H](O[C@@H]2O[C@H](CO)[C@H](O)[C@H](O)[C@H]2O)[C@H](O)[C@H]1O	2.82
CC(=O)N(c1cc(Cl)cc(C(=O)O)c1)[C@@H]1O[C@H](CO)[C@@H](O[C@@H]2O[C@H](CO)[C@H](O)[C@H](O)[C@H]2O)[C@H](O)[C@H]1O	3.02

[I] CO[C@@H]1O[C@H](CO)[C@@H](O[C@@H]2O[C@H](CO)[C@H](O)[C@H](O)[C@H]2O)[C@H](O)[C@H]1O [β-LacOMe, methyl β-lactoside, reference compound]
[II] CC(=O)N(c1cc(F)c(F)c(F)c1)[C@@H]1O[C@H](CO)[C@@H](O[C@@H]2O[C@H](CO)[C@H](O)[C@H](O)[C@H]2O)[C@H](O)[C@H]1O
[III] COc1ccc(N(C(C)=O)[C@@H]2O[C@H](CO)[C@@H](O[C@@H]3O[C@H](CO)[C@H](O)[C@H](O)[C@H]3O)[C@H](O)[C@H]2O)cc1
[IV] CC(=O)N(c1cc(C(=O)O)cc2[nH]ccc12)[C@@H]1O[C@H](CO)[C@@H](S[C@@H]2O[C@H](CO)[C@H](O)[C@H](n3cc(-c4cccc(F)c4)nn3)[C@H]2O)[C@H](O)[C@H]1O
## Task Please list these compounds in decreasing order of pIC50. Please list the labels according to the requested order.
## Result IV, II, III, I

[I] CC(=O)N(c1ccc(Cl)c(Cl)c1)[C@@H]1O[C@H](CO)[C@@H](O[C@@H]2O[C@H](CO)[C@H](O)[C@H](O)[C@H]2O)[C@H](O)[C@H]1O
[II] CC(C)C(=O)N(c1cccc(C(=O)O)c1)[C@@H]1O[C@H](CO)[C@@H](O[C@@H]2O[C@H](CO)[C@H](O)[C@H](O)[C@H]2O)[C@H](O)[C@H]1O
## Task Form field 'greater pIC50' accepts I or II ; which applies? Refer to your chosen item by its label in the answer.
## Result I
(I: 3.18, II: 2.74)

[I] COc1cc(N(C(C)=O)[C@@H]2O[C@H](CO)[C@@H](O[C@@H]3O[C@H](CO)[C@H](O)[C@H](O)[C@H]3O)[C@H](O)[C@H]2O)cc(OC)c1OC
[II] CC(=O)N(c1ccc(C)cc1)[C@@H]1O[C@H](CO)[C@@H](O[C@@H]2O[C@H](CO)[C@H](O)[C@H](O)[C@H]2O)[C@H](O)[C@H]1O
## Task Form field 'greater pIC50' accepts I or II ; which applies? Refer to your chosen item by its label in the answer.
## Result I

----------
- Measured on: human galectin-3C (Gal-3C, C-terminal CRD of galectin-3) (Homo sapiens, UniProt P17931)
- Construct: only the C-terminal domain was used (Gal-3C); 6xHis tag with TEV protease site (N, cleaved yes); made in house; host or cells: BL21 Escherichia coli (pET-15b)
- Sequence (P17931 118-248 limits assumed): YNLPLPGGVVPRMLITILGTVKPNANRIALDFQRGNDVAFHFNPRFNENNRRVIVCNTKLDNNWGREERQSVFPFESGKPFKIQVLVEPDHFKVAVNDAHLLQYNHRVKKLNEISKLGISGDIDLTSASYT
- Test protocol: Competitive fluorescence polarization assay, Gal-3C
- Type: binding
- Assay context: competitive fluorescence polarization; mean ± SD; read-out: Kd Gal-3C
- Description: Our investigation of the structure–activity relationship of N-aryl-N-lactosylamides started with an initial screening of substituted acetanilides (Table ). These compounds can be readily synthesized from a wide range of commercially available substituted anilines. Affinity was evaluated using a fluorescence polarization assay, which enables reliable determination of dissociation constants (K d) between small molecules and galectins. […]
Property: Kd (µM)

Compound	Units of measure	Measurement
CC(=O)N(c1cc(C(=O)O)cc2[nH]ccc12)[C@@H]1O[C@H](CO)[C@@H](S[C@@H]2O[C@H](CO)[C@H](O)[C@H](n3cc(-c4cccc(F)c4)nn3)[C@H]2O)[C@H](O)[C@H]1O [Compound 11]	µM	0.0057
CC(=O)N(c1cc(F)c(F)c(F)c1)[C@@H]1O[C@H](CO)[C@@H](O[C@@H]2O[C@H](CO)[C@H](O)[C@H](O)[C@H]2O)[C@H](O)[C@H]1O [Compound 3i]	µM	110
CNC(=O)c1cccc(N(C(C)=O)[C@@H]2O[C@H](CO)[C@@H](O[C@@H]3O[C@H](CO)[C@H](O)[C@H](O)[C@H]3O)[C@H](O)[C@H]2O)c1 [Compound 3w]	µM	88
O=C(O)c1cccc(N(C(=O)c2ccccc2)[C@@H]2O[C@H](CO)[C@@H](O[C@@H]3O[C@H](CO)[C@H](O)[C@H](O)[C@H]3O)[C@H](O)[C@H]2O)c1 [Compound 3t]	µM	51
CC(=O)N(c1ccc(Cl)c(Cl)c1)[C@@H]1O[C@H](CO)[C@@H](O[C@@H]2O[C@H](CO)[C@H](O)[C@H](O)[C@H]2O)[C@H](O)[C@H]1O [Compound 3k]	µM	110

[I] CC(=O)N(c1cccc(C(F)(F)F)c1)[C@@H]1O[C@H](CO)[C@@H](O[C@@H]2O[C@H](CO)[C@H](O)[C@H](O)[C@H]2O)[C@H](O)[C@H]1O [Compound 3d]
[II] CC(=O)N(c1cc(O)cc(C(=O)O)c1)[C@@H]1O[C@H](CO)[C@@H](O[C@@H]2O[C@H](CO)[C@H](O)[C@H](O)[C@H]2O)[C@H](O)[C@H]1O [Compound 3ad]
## Task Form field 'greater Kd' accepts I or II ; which applies? Refer to your chosen item by its label in the answer.
## Result I

----------
- Measured on: human galectin-1 (Gal-1, full length) (Homo sapiens)
- Construct: Gal-1 is a prototype galectin consisting of a single CRD and was used in full length; 6xHis tag with TEV protease site (N, cleaved yes); made in house; host or cells: BL21 Escherichia coli (pET-15b)
- Test protocol: Competitive fluorescence polarization assay, Gal-1
- Format: binding
- Assay context: CSV supplement, unrounded mean; read-out: Gal1_Kd_mean_uM
pKd: −log10 of the molar value.
Property: pKd

// known answers, use as guide
Compound	pKd
CC(=O)N(c1ccccc1F)[C@@H]1O[C@H](CO)[C@@H](O[C@@H]2O[C@H](CO)[C@H](O)[C@H](O)[C@H]2O)[C@H](O)[C@H]1O	3.30
CC(=O)N(c1ccc(C)cc1)[C@@H]1O[C@H](CO)[C@@H](O[C@@H]2O[C@H](CO)[C@H](O)[C@H](O)[C@H]2O)[C@H](O)[C@H]1O	3.32
C#Cc1cccc(N(C(C)=O)[C@@H]2O[C@H](CO)[C@@H](O[C@@H]3O[C@H](CO)[C@H](O)[C@H](O)[C@H]3O)[C@H](O)[C@H]2O)c1	3.00

[P] COc1ccc(N(C(C)=O)[C@@H]2O[C@H](CO)[C@@H](O[C@@H]3O[C@H](CO)[C@H](O)[C@H](O)[C@H]3O)[C@H](O)[C@H]2O)cc1OC
[Q] CC(=O)c1c[nH]c2cc(C(=O)O)cc(N(C(C)=O)[C@@H]3O[C@H](CO)[C@@H](S[C@@H]4O[C@H](CO)[C@H](O)[C@H](n5cc(-c6cccc(F)c6)nn5)[C@H]4O)[C@H](O)[C@H]3O)c12
[R] CC(=O)N(c1cc(C(=O)O)cc2[nH]ccc12)[C@@H]1O[C@H](CO)[C@@H](S[C@@H]2O[C@H](CO)[C@H](O)[C@H](n3cc(-c4cccc(F)c4)nn3)[C@H]2O)[C@H](O)[C@H]1O
## Task Please order the records by their reported pKd, lowest number first. Please list the labels according to the requested order.
## Result P, Q, R
(P: 3.44, Q: 5.44, R: 5.66)

----------
- Measured on: human galectin-1 (Gal-1, full length) (Homo sapiens)
- Construct: Gal-1 is a prototype galectin consisting of a single CRD and was used in full length; 6xHis tag with TEV protease site (N, cleaved yes); made in house; host or cells: BL21 Escherichia coli (pET-15b)
- Test protocol: Competitive fluorescence polarization assay, Gal-1
- Format: binding
- Assay context: four-parameter logistic model; mean ± SD; read-out: IC50 Gal-1
pIC50: −log10 of the molar value.
Property: pIC50

Smiles record	pIC50
O=C(O)c1cccc(N(C(=O)c2ccccc2)[C@@H]2O[C@H](CO)[C@@H](O[C@@H]3O[C@H](CO)[C@H](O)[C@H](O)[C@H]3O)[C@H](O)[C@H]2O)c1	2.89
CC(=O)N(c1ccc(F)cc1)[C@@H]1O[C@H](CO)[C@@H](O[C@@H]2O[C@H](CO)[C@H](O)[C@H](O)[C@H]2O)[C@H](O)[C@H]1O	3.23
CC(=O)N(c1ccccc1F)[C@@H]1O[C@H](CO)[C@@H](O[C@@H]2O[C@H](CO)[C@H](O)[C@H](O)[C@H]2O)[C@H](O)[C@H]1O	3.03
CC(=O)N(c1ccc(Cl)cc1)[C@@H]1O[C@H](CO)[C@@H](O[C@@H]2O[C@H](CO)[C@H](O)[C@H](O)[C@H]2O)[C@H](O)[C@H]1O	3.19

[P] COc1ccc(N(C(C)=O)[C@@H]2O[C@H](CO)[C@@H](O[C@@H]3O[C@H](CO)[C@H](O)[C@H](O)[C@H]3O)[C@H](O)[C@H]2O)cc1OC
[Q] C#Cc1cccc(N(C(C)=O)[C@@H]2O[C@H](CO)[C@@H](O[C@@H]3O[C@H](CO)[C@H](O)[C@H](O)[C@H]3O)[C@H](O)[C@H]2O)c1
## Task // compare: P vs Q , metric pIC50, want the smaller Refer to your chosen item by its label in the answer.
## Result Q
